Overview of recorded pKd for various binders
molecular target: T1, SARS-CoV-2 Receptor Binding Domain (RBD) protein (SARS-CoV-2, UniProt P0DTC2 319-541); experiment: SPR (Carterra LSA); scFv captured by anti-V5, RBD as analyte
T1 construct: also called Sars-Cov-2 (COV2)
The scale used: pKd is minus the common logarithm of the concentration in molar units.

The examples below pair each entry with its known result.
BINDER	pKd
COVID19_P13_H02 (scFv, V domains shown) VH: QVQLVQSGAEVKKPGSSVKVSCKASGYTFTGFYMQWVRQAPGQGLEWMGGITPILGTANYAQKFQGRVTITADESTSTAYMELSSLRSEDTAVYYCAREIVMGGMDVWGQGTLVTVSS VL: SSYVLTQPPSVSVAPGKTARITCGGNNIGSKSVHWYQQKPGQAPVLVIYYDSDRPSGIPERFSGSNSGNTATLTISRVEAGDEADYYCQSWDSSSDYVFGGGTKLTVLA	7.39
COVID19_P14_H10 (scFv, V domains shown) VH: QVQLVQSGAEVKKPGSSVKVSCKASGGSFSRFPISWVRQAPGQGLEWMGGIIPIFGTANYAQRFQGRVTITADESTSTAYMELSSLRSEDTAVYYCALETVMGGLQVWGQGTLVTVSS VL: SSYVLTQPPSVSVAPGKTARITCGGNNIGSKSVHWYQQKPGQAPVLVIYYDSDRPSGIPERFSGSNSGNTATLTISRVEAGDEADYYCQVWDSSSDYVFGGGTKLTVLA	7.55

Quick check: pKd of COVID19_P01_C09 (scFv, V domains shown) VH: QVQLVQSGAEVKKPGSSVKVSCKASGYTFTSFDIHWVRQAPGQGLEWMGGIIPIFGTANYAQKFQGRVTITADESTSTAYMELSSLRSEDTAVYYCAYETVMGGMDVWGQGTLVTVSS VL: SSYVLTQPPSVSVAPGKTARITCGGNNIGSKSVHWYQQKPGQAPVLVIYYDSDRPSGIPERFSGSNSGNTATLTISRVEAGDEADYYCQVWDSSSYYVFGGGTKLTVLA ? 7.74
